Hi there, I'd appreciate the recorded viability for every entry that follows.
# assay info: reversal of MRP1-mediated doxorubicin resistance, pilot screen, H69AR cells, doxorubicin co-treatment (AID 601)
# settings: H69AR cells + 2 uM doxorubicin, CellTiter-Glo, 72 h; measured here: viability with 2 uM doxorubicin; at 10 µM; stronger effect = lower value

Challenge: Tell me its viability given N#CCSc1nc2c(c(C3CC=CCC3)c1C#N)CCC2 (stereo unspecified) as the entry.
Response given: 87.2%

Challenge: Tell me its viability given "O=c1[nH]c(=O)n(C2CCCCCC2)c(O)c1C=NCc1ccc(F)cc1" as the entry.
Response given: 86.3%

Challenge: Tell me its viability given O=C1CC(N2CCN(C3CCc4ccccc4C3)CC2)C(=O)N1c1ccccc1 (stereo unspecified) as the entry.
Response given: 90%

Challenge: Tell me its viability given "COc1cccc(C(=O)Nc2ccc(C)cc2)c1" as the entry.
Response given: 88.3%

Challenge: Tell me its viability given "CCCN1C=CC(=C2C(=O)c3ccccc3C2=O)C=C1" as the entry.
Response given: 43.8%

Challenge: Tell me its viability given "O=C(O)c1cccc(NS(=O)(=O)c2ccc3nnn(O)c3c2)c1" as the entry.
Response given: 98%

Challenge: Tell me its viability given COc1ccc(/C(O)=C2/C(=O)C(=O)N(CCCN(C)C)C2c2ccco2)cc1Cl (stereo unspecified) as the entry.
Response given: 88.6%

Challenge: Tell me its viability given "CCOC(=O)c1ccccc1NC(=O)CSc1nc2c(c(=O)n(C)c(=O)n2C)n1C" as the entry.
Response given: 85.9%

Challenge: Tell me its viability given "N#Cc1cnc(SCC(=O)Nc2ccccc2C(F)(F)F)nc1N" as the entry.
Response given: 88.5%

Challenge: Tell me its viability given "Brc1ccc(-c2csc(/N=C/N3CCOCC3)n2)cc1" as the entry.
Response given: 92.5%

Challenge: Tell me its viability given "CCOc1cc(-c2nc(-c3ccccc3OC)no2)cc(OCC)c1OCC" as the entry.
Response given: 95.1%
